Kindly supply the reported Emax values for the records listed here.
biological target: UniProt Q9H3S4; experiment: TPK enzyme activity test; format: biochemical; settings: calculated with the effect of DMSO on TPK enzyme activity as 100%
Where a name gives a salt, the structure may show the parent alone.

Asked: Quick one: Emax for O=c1c2c(ncn1CCCN1CCN(c3cccc(Cl)c3Cl)CC1)-c1ccccc1CCC2 [Formate salt of 222] ?
Given back: 143%

Asked: Quick one: Emax for "O=C(CCn1cnc2c([nH]c3ccc(F)cc32)c1=O)N1CCN(c2cccc(C(F)(F)F)c2)CC1" ?
Given back: 130.73%

Asked: Quick one: Emax for Cc1ccc2c(c1)N1CCCC(C(=O)NCCCN3CCN(c4cccc(C(F)(F)F)c4)CC3)C1CO2 (stereo not drawn) [Formate salt of 232] ?
Given back: 136%

Asked: Quick one: Emax for O=C1CCc2ccc(OCCCCN3c4ccccc4Sc4ccc(C(F)(F)F)cc43)cc2N1 [Compound 204] ?
Given back: 186.22%

Asked: Quick one: Emax for O=C1CCc2ccc(OCCCCN3c4ccccc4Sc4ccc(C(F)(F)F)cc43)cc2N1 [Compound 205] ?
Given back: 137.51%

Asked: Quick one: Emax for Cc1ccc2c(c1)-c1ncn(CCCC(=O)N3CCCC(Cc4ccc(F)cc4)C3)c(=O)c1CC2 (stereo not drawn) ?
Given back: 152.22%

Asked: Quick one: Emax for "Cc1ccc2c(c1)-c1nc(=O)n(CCC(=O)N3CCN(c4cccc(Cl)c4Cl)CC3)cc1CO2" ?
Given back: 137.60%

Asked: Quick one: Emax for "Cc1ccc2[nH]c3c(=O)n(CCC(=O)N4CCN(c5ccc(F)cc5)CC4)cnc3c2c1" ?
Given back: 122.50%

Asked: Quick one: Emax for "COC(=O)CCC(=O)OCCN1CCN(CCCN2c3ccccc3Sc3ccc(C(F)(F)F)cc32)CC1" ?
Given back: 176%

----------
Kindly supply the reported EC50 values for the records listed here.
molecular target: TPK enzyme (Homo sapiens (Human), UniProt Q9H3S4); assay: TPK enzyme activity test; settings: promoting effect on TPK enzyme activity
Sequence (Q9H3S4 whole entry): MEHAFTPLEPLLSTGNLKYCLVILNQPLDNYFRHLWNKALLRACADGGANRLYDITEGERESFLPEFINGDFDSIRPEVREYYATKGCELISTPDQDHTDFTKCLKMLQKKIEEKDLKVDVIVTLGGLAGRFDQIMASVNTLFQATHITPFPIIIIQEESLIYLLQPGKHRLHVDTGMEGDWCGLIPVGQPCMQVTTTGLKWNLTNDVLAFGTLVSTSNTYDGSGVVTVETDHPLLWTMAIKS
Structures can show the parent of a compound that is named as a salt.

Asked: Kindly state the measured EC50 obtained for Cc1ccc2c(c1)N1CCCC(C(=O)NCCCN3CCN(c4cccc(C(F)(F)F)c4)CC3)C1CO2 (stereo not drawn) [Formate salt of 232] with TPK enzyme (Homo sapiens (Human), UniProt Q9H3S4).
Given back: 1810 nM

Asked: Kindly state the measured EC50 obtained for "O=C(CCn1cnc2c([nH]c3ccc(C(F)(F)F)cc32)c1=O)N1CCN(Cc2cccc(C(F)(F)F)c2)CC1" with TPK enzyme (Homo sapiens (Human), UniProt Q9H3S4).
Given back: 1580 nM

Asked: Kindly state the measured EC50 obtained for "Cc1ccc2[nH]c3c(=O)n(CCC(=O)N4CCN(c5cccc(Cl)c5Cl)CC4)cnc3c2c1" with TPK enzyme (Homo sapiens (Human), UniProt Q9H3S4).
Given back: 110 nM

Asked: Kindly state the measured EC50 obtained for "O=C1CCCCN1CCCN1c2ccccc2Sc2ccccc21" with TPK enzyme (Homo sapiens (Human), UniProt Q9H3S4).
Given back: 2660 nM

Asked: Kindly state the measured EC50 obtained for "O=C(CCCn1cnc2c(c1=O)CCCc1ccccc1-2)N1CCN(c2cccc(C(F)(F)F)c2)CC1" with TPK enzyme (Homo sapiens (Human), UniProt Q9H3S4).
Given back: 2130 nM

Asked: Kindly state the measured EC50 obtained for "Cc1ccc2[nH]c3c(=O)n(CCC(=O)N4CCN(c5cccc(S(=O)(=O)N6CCCCC6)c5)CC4)cnc3c2c1" with TPK enzyme (Homo sapiens (Human), UniProt Q9H3S4).
Given back: 2370 nM

Asked: Kindly state the measured EC50 obtained for "Cc1ccc2[nH]c3c(=O)n(CCC(=O)N4CCC(Cc5ccc(F)cc5)CC4)cnc3c2c1" with TPK enzyme (Homo sapiens (Human), UniProt Q9H3S4).
Given back: 2320 nM

Asked: Kindly state the measured EC50 obtained for "Cc1ccc2[nH]c3c(=O)n(CCC(=O)N4CCN(c5ccc(S(=O)(=O)N6CCCCC6)cc5)CC4)cnc3c2c1" with TPK enzyme (Homo sapiens (Human), UniProt Q9H3S4).
Given back: 2140 nM

Asked: Kindly state the measured EC50 obtained for "Cc1ccc2[nH]c3c(=O)n(CCC(=O)N4CCN(c5ccc(Cl)c(Cl)c5)CC4)cnc3c2c1" with TPK enzyme (Homo sapiens (Human), UniProt Q9H3S4).
Given back: 768 nM

Asked: Kindly state the measured EC50 obtained for "Cc1ccc2ncc3c(=O)n(CCCC(=O)N4CCN(c5cccc(Cl)c5Cl)CC4)cnc3c2c1" with TPK enzyme (Homo sapiens (Human), UniProt Q9H3S4).
Given back: 1470 nM

Asked: Kindly state the measured EC50 obtained for "Cc1ccc2oc3c(=O)n(CCC(=O)N4CCN(c5cccc(C(F)(F)F)c5)CC4)cnc3c2c1" with TPK enzyme (Homo sapiens (Human), UniProt Q9H3S4).
Given back: 1190 nM

Asked: Kindly state the measured EC50 obtained for "O=C(CCn1cnc2c(c1=O)CCCc1ccccc1-2)N1CCN(c2cccc(C(F)(F)F)c2)CC1" with TPK enzyme (Homo sapiens (Human), UniProt Q9H3S4).
Given back: 1650 nM

Asked: Kindly state the measured EC50 obtained for "Cc1ccc2[nH]c3c(=O)n(CCC(=O)N4CCN(c5cc(Cl)ccc5C)CC4)cnc3c2c1" with TPK enzyme (Homo sapiens (Human), UniProt Q9H3S4).
Given back: 3960 nM

Asked: Kindly state the measured EC50 obtained for "Cc1ccc2[nH]c3c(=O)n(CCC(=O)N(C)CCN(C)c4cccc(C(F)(F)F)c4)cnc3c2c1" with TPK enzyme (Homo sapiens (Human), UniProt Q9H3S4).
Given back: 3560 nM

Asked: Kindly state the measured EC50 obtained for "Cc1ccc2[nH]c3c(=O)n(CC(=O)NCCCN4CCN(Cc5ccccc5)CC4)ncc3c2c1" with TPK enzyme (Homo sapiens (Human), UniProt Q9H3S4).
Given back: 10600 nM

----------
target: UniProt Q9H3S4; assay: TPK enzyme activity test; assay type: biochemical; conditions: calculated with the effect of DMSO on TPK enzyme activity as 100%; read-out: Emax
Where a name gives a salt, the structure may show the parent alone.
Kindly supply the reported Emax values for the records listed here.
Record the value in %, omitting the unit from your answer.

Asked: Quick one: Emax for "Cc1ccc2[nH]c3c(=O)n(CCC(=O)NCc4cccc(C(F)(F)F)c4)ccc3c2c1" ?
Given back: 187

Asked: Quick one: Emax for "Cc1ccc2[nH]c3c(=O)n(CCC(=O)NCc4cccc(C(F)(F)F)c4)cnc3c2c1" ?
Given back: 178

Asked: Quick one: Emax for "COC(=O)c1cccc(CNC(=O)CCn2cnc3c([nH]c4ccc(C)cc43)c2=O)c1" ?
Given back: 126

Asked: Quick one: Emax for "Cc1ccc2c(c1)-c1ncn(CCC(=O)N3CCN(c4cccc(C(F)(F)F)c4)CC3)c(=O)c1CC2" ?
Given back: 173

Asked: Quick one: Emax for "O=C1CCc2ccc(OCCCCCN3c4ccccc4Sc4ccc(C(F)(F)F)cc43)cc2N1" ?
Given back: 165

Asked: Quick one: Emax for Cc1ccc2[nH]c3c(=O)n(CCCN4CCN(c5cccc(Cl)c5Cl)CC4)cnc3c2c1 [Diformate salt of 52] ?
Given back: 195

Asked: Quick one: Emax for "Cc1ccc2[nH]c3c(=O)n(CCC(=O)N4CCN(c5ccc(S(=O)(=O)N6CCCCC6)cc5)CC4)cnc3c2c1" ?
Given back: 147

----------
molecular target: TPK enzyme (Homo sapiens (Human)); test: TPK enzyme activity test; type: biochemical; settings: calculated with the effect of DMSO on TPK enzyme activity as 100%; read-out: Emax
Counter-ions that a name gives are not always drawn.
ASSAY_ENDPOINT: Emax (%)
Record the value in %, omitting the unit from your answer.

Asked: Quick one: Emax for O=C1CCCCN1CCCCCCN1C(=O)CSc2ccc(C(F)(F)F)cc21 [Compound 195] ?
Given back: 136

Asked: Quick one: Emax for Cc1ccc2[nH]c3c(=O)n(CCCCN4CCN(c5cccc(C(F)(F)F)c5)CC4)cnc3c2c1 [Formate salt of 48] ?
Given back: 210

Asked: Quick one: Emax for Cc1ccc2[nH]c3c(=O)n(CCC(=O)N4CCN(c5ccc(C(F)(F)F)cc5)CC4)cnc3c2c1 [Compound 10] ?
Given back: 157

Asked: Quick one: Emax for Cc1ccc2[nH]c3c(=O)n(CCC(=O)NCCCc4cccc(C(F)(F)F)c4)cnc3c2c1 [Compound 69] ?
Given back: 168

----------
target: TPK enzyme (Homo sapiens (Human), UniProt Q9H3S4); experiment: TPK enzyme activity test; conditions: promoting effect on TPK enzyme activity
pEC50: −log10 of the molar value.
Outcome: met for pEC50 of at least 6; not met for anything lower.

Asked: Has "COc1ccc2[nH]c(=O)c3c(c2c1)CN(CCCN1CCN(c2cccc(Cl)c2Cl)CC1)C3" a recorded pEC50 greater than or equal to 6?
Given back: met

Asked: Has "O=C1CCc2ccc(OCCCCN3c4ccccc4Sc4ccc(C(F)(F)F)cc43)cc2N1" a recorded pEC50 greater than or equal to 6?
Given back: met

Asked: Has "O=C(CCn1cnc2c(oc3ccc(F)cc32)c1=O)N1CCN(c2cccc(C(F)(F)F)c2)CC1" a recorded pEC50 greater than or equal to 6?
Given back: not met

Asked: Has "O=C(CCn1cnc2c(oc3ccc(F)cc32)c1=O)N1CCC(O)(c2cccc(C(F)(F)F)c2)CC1" a recorded pEC50 greater than or equal to 6?
Given back: not met

Asked: Has "Cc1ccc2c(c1)[nH]c1c(=O)n(CCC(=O)N3CCN(c4ccc(Cl)cc4Cl)CC3)cnc12" a recorded pEC50 greater than or equal to 6?
Given back: not met

Measured values drawn from patent US20250388584A1 for this set.
